Test: yeast display, Sf9 membrane polyspecificity reagent, FACS + sequencing; frameworks hold sequencing errors
assay-metric: polyreactivity (PSR sort gate)

INSERT INTO results (residue_string, assay_metric, result) VALUES
  ('QVQLEESGGGLVQAGGSLRLSCAASGRIFWGYAMGWYRQAPGKERELVAGITYSGGSTYYADSVKGRFTISRDNAKNTVYLQMNSLKPEDTAVYYCAADATPGRGVDYWGQGTQVTVSS', 'polyreactivity (PSR sort gate)', 'high polyreactivity'),
  ('QVQLVESGGGLVQAGGSLRLSCAASGRTFQPNVMGLFRQEPGKESELVAAISWSGASTYYADSVKGRFTISRDNAKNTVYLQMNSLKPEDTSVYYCAAEFPFPPACDYWGQGTQVTVSS', 'polyreactivity (PSR sort gate)', 'low polyreactivity'),
  ('QVQLVESGGGLVQAGGSLRLSCAASGSIFGPYAMGWYRQAPGKERELVATISSGGNTNYADSVKGRFTISRDNAKNTVYLQMNSLKPEDTAVYYCAADYTWSVYWWVDYWGQGTQVTVSS', 'polyreactivity (PSR sort gate)', 'low polyreactivity'),
  ('PDQLVESGGGLVQAGGSLRLSCAASGRTFSGYGMGWYRQAPGKERELVAAFSSSGDSTYYADSVKGRFSIARDNPKNTVYVQMNSLKPDDPAVYYCNDYRRSYNGFRYYYWGQGTQVTVSS', 'polyreactivity (PSR sort gate)', 'low polyreactivity');

Continue with the next sequence.
What value of polyreactivity (PSR sort gate) has been recorded for this entry: "QVQLVESGGGLVQAGGSLRLSCAASGLTFIKYAMGWYRQAPGKERELVADITSSGGTTYYADSVKGRFTISRDNAKNTVYLQMNSLKPEDTAVYYCAAGTRTGMNWGQGTQVTVSS"
high polyreactivity

----------
Assay: yeast display, Sf9 membrane polyspecificity reagent, FACS + sequencing; frameworks hold sequencing errors
assay-metric: polyreactivity (PSR sort gate)

Illustrative cases are given below, each with its answer.
INSERT INTO measurements (residue_string, assay_metric, result) VALUES
  ('QVQLVESGGGLVQAGGSLRFSCAASGGTFWYYAMGWYRQAPGKERELDASISRGGSTNYADSVKGRFTISRDNAKNTVYLQMNSLKPEDTAVYYCIAGLRVGPRRYVDYEYDYWGQGTQVTVSS', 'polyreactivity (PSR sort gate)', 'low polyreactivity'),
  ('QVQLVESGGGLVQAGGSLRLSCAASGRTFYQYAMGWYRQARGKERELVAAISRRGGSTYYADSVKGRFTISRDNAKNTVYLQMNSLKPEDTAVYYCAARVRGKYDYWGQGTQVTVSS', 'polyreactivity (PSR sort gate)', 'high polyreactivity'),
  ('QVQLVESGGGLVQAGGSLRLSCAASGNTFPIYAMGWSRQAPGKERELVAAIRSSTGSTYYADSVKGRFTISRDYAKNTVYLQMNSLKPEATAVYYCAAAGVTSVVYGTRYYYWGQGTQVTVSS', 'polyreactivity (PSR sort gate)', 'high polyreactivity'),
  ('QVQLVESGGCLVQAGGSLRLSCAASGYTFVHYDMGWYRQAPGKEREFVAAISGATYYADSVTGRFTISRDNAKNTVYLQMNSLKLEDTAVYYCNAYAYVESPSDMDYWGQGTQVTVSS', 'polyreactivity (PSR sort gate)', 'low polyreactivity'),
  ('QVQLVESGGGLVQAGGSLRLSCAASGLIFSRYAMGWYRQAPGKERELVAAISSSGGTTYYADSVKGRFTISRDNAKNTVYLQMNSLKPEDTAVYYCAAGVAWRFYSWGQGTQVTVSS', 'polyreactivity (PSR sort gate)', 'high polyreactivity'),
  ('QVQLVESGGGLVQAGGSLRLSCAASGISFYSYTMGWYIQAPGKERELVAAIRGSDGSTYYADSVKGRFTLSRDNAKNTVYLQMNSLKPEVTAVYYCNRKFYWRRDYWGQGTQVTVSS', 'polyreactivity (PSR sort gate)', 'high polyreactivity');

What value of polyreactivity (PSR sort gate) has been recorded for this entry: "QVQLVESGGGLVQAGGSLRLSCAASGYTFAIYAMGWYRQAPGKERELVAAITWNGGSTYYADSVKGRFTISRDNAKNTVFLQMNSLKPEDTAVYYCAADYWSGGYDYWGQGTQVTVSS"
low polyreactivity

What value of polyreactivity (PSR sort gate) has been recorded for this entry: "QVQLVESGGGLVQAGGSLRLSCAASGRTFRGNAIGWYRQAPGKERELVAAIRWNGGSTYYADSVKGRFTISRDNAKNTVYLQMNSLKPEDTAVYYCAVSYWYSRYDYWGQGTQVTVSS"
high polyreactivity
